molecular target: EHMT2 (Homo sapiens, UniProt Q96KQ7); construct: host or cells: MDA-MB-231; experiment: MDA-MB-231 H3K9me2 in-cell Western assay (EHMT2 ICW); format: cell-based; conditions: Table II; MDA-MB-231 H3K9me2 in-cell Western; read-out: EHMT2 ICW (IC50 μM)
Sequence (Q96KQ7 whole entry): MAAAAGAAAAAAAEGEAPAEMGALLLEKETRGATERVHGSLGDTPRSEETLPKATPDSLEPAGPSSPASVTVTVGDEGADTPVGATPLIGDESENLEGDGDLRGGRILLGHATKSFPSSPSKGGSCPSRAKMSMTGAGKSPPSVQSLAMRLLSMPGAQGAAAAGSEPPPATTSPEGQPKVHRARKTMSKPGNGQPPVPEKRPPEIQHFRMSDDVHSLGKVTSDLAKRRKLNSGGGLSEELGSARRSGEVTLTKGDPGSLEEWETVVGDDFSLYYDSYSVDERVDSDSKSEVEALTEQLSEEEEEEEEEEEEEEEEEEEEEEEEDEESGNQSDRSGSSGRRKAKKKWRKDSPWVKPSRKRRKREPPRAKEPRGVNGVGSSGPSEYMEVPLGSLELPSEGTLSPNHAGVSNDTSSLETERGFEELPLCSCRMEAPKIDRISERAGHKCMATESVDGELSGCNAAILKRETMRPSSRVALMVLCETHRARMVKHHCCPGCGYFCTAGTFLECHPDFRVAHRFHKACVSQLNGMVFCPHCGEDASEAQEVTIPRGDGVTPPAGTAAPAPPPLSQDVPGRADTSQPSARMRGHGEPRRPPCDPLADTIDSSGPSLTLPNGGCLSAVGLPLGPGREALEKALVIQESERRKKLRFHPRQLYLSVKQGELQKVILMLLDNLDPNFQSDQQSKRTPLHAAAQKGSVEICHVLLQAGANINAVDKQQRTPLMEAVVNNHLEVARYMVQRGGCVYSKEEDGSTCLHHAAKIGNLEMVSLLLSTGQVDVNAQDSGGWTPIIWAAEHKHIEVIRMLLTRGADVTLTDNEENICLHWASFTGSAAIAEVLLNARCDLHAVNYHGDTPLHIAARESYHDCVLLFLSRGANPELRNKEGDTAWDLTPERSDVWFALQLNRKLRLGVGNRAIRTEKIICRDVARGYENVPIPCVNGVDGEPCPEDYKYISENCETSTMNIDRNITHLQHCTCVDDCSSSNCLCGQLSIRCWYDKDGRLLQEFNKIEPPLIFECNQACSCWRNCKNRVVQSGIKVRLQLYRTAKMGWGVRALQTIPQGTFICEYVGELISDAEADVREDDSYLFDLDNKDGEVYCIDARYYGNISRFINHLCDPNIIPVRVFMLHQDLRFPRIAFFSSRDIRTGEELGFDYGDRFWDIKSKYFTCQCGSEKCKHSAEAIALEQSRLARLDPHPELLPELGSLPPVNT
For each of the compounds below, state its IC50.

Completed entries (count: 4):
[
  {
    "compound": "COc1ccc(Nc2nccc3[nH]ncc23)cc1OCCCN1CCCC1 [Compound 249]",
    "recorded-measurement": "> 10 µM"
  },
  {
    "compound": "COc1ccccc1CNc1ccnc(Nc2ccc(OC)c(OCCCN3CCCC3)c2)n1 [Compound 36]",
    "recorded-measurement": "0.1 to 1 µM"
  },
  {
    "compound": "COc1ccc(Nc2nccc(N3CCN(S(C)(=O)=O)CC3)n2)cc1OCCCN1CCCC1 [Compound 162]",
    "recorded-measurement": "> 10 µM"
  },
  {
    "compound": "COc1ccc(Nc2nccc(-c3c[nH]nc3C)n2)cc1OCCCN1CCCC1 [Compound 131]",
    "recorded-measurement": "> 10 µM"
  }
]

Exercise: Indicate its recorded IC50; the compound in question is COc1ccc(Nc2nccc(N3Cc4cn[nH]c4C3)n2)cc1OCCCN1CCCC1 [Compound 53]
Key: 1 to 10 µM
